- TARGET_SYSTEM: Gal-8N (galectin-8 N-terminal domain) (Homo sapiens)
- Construct: made in house
- Sequence (O00214 19-152 limits assumed): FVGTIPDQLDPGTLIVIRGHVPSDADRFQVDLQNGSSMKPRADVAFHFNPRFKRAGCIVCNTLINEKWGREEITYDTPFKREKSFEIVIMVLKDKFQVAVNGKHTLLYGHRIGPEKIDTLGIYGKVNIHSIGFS
- MEASUREMENT_PROTOCOL: competitive fluorescence polarisation assay, Gal-8N
- Format: binding
- RECORDED_CONDITIONS: ester compounds, competitive FP, highest tested concentration 1500 µM; read-out: Kd (Galectin-8N)
MEASURED_PARAMETER: pKd
API: returns pKd as number; meaning -log10 of concentration in mol/L.

# annotated cases, reported pKd shown
1) C#CCO[C@@H]1[C@@H](OCc2nc3ccc(C(=O)OC)cc3n2C)[C@@H](O)[C@@H](CO)O[C@@H]1Sc1ccc(Cl)c(Cl)c1 ... 3.56
2) COC(=O)c1ccc2nc(CO[C@H]3[C@@H](O)[C@@H](CO)O[C@H](Sc4ccc(Cl)c(Cl)c4)[C@@H]3OCC(=O)O)n(C)c2c1 ... 5.11

Next:
Exam item: Value lookup for pKd; key = COC(=O)c1ccc2nc(CO[C@H]3[C@@H](O)[C@@H](CO)O[C@H](Sc4ccc(Cl)c(Cl)c4)[C@@H]3OCC(=O)OC(C)(C)C)n(C)c2c1
Marked response: 3.70

---

- TARGET_SYSTEM: Gal-8N (Homo sapiens)
- Construct: consisting of residues 4-158 was produced by Lund Protein Production Platform; made in house; host or cells: E. coli TUNER(DE3)
- Sequence (O00214 4-158): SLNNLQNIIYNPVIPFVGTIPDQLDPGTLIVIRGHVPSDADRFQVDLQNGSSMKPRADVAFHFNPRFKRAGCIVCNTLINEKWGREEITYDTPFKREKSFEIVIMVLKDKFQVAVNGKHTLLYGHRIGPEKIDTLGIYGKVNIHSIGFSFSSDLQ
- MEASUREMENT_PROTOCOL: ligand efficiency (LE) and ligand-lipophilicity efficiency (LLE) calculations
- RECORDED_CONDITIONS: from Gal-8N Kd and number of non-hydrogen atoms
MEASURED_PARAMETER: LE

# annotated cases, reported LE shown
1. COC(=O)c1ccccc1-n1cc(CO[C@@H]2[C@@H](OCc3nc4ccc(C(=O)O)cc4n3C)[C@@H](O)[C@@H](CO)O[C@@H]2Sc2ccc(Cl)c(Cl)c2)nn1 [Compound 15a] ... 0.149 (kcal/mol)/heavy atom
2. C#CCO[C@@H]1[C@@H](OCc2nc3ccc(C(=O)O)cc3n2C)[C@@H](O)[C@@H](CO)O[C@@H]1Sc1ccc(Cl)c(Cl)c1 [Compound 11] ... 0.226 (kcal/mol)/heavy atom
3. Cn1c(CO[C@H]2[C@@H](O)[C@@H](CO)O[C@H](Sc3ccc(Cl)c(Cl)c3)[C@@H]2OCc2cn(-c3cccc(C(=O)O)c3)nn2)nc2ccc(C(=O)O)cc21 [Compound 16b] ... 0.173 (kcal/mol)/heavy atom
4. Cn1c(CO[C@H]2[C@@H](O)[C@@H](CO)O[C@H](Sc3ccc(Cl)c(Cl)c3)[C@@H]2OCc2ccc(F)cc2)nc2ccc(C(=O)O)cc21 [Compound 8d] ... 0.189 (kcal/mol)/heavy atom
5. Cn1c(CO[C@H]2[C@@H](O)[C@@H](CO)O[C@H](Sc3ccc(Cl)c(Cl)c3)[C@@H]2OCc2ccccc2)nc2ccc(C(=O)O)cc21 [Compound 8a] ... 0.195 (kcal/mol)/heavy atom
6. Cn1c(CO[C@H]2[C@@H](O)[C@@H](CO)O[C@H](Sc3ccc(Cl)c(Cl)c3)[C@@H]2OCC2CCC2)nc2ccc(C(=O)O)cc21 [Compound 25] ... 0.204 (kcal/mol)/heavy atom

Next:
Exam item: Value lookup for LE; key = Cn1c(CO[C@H]2[C@@H](O)[C@@H](CO)O[C@H](Sc3ccc(Cl)c(Cl)c3)[C@@H]2OCc2cn(-c3ccc(C(=O)O)cc3)nn2)nc2ccc(C(=O)O)cc21 [Compound 16c]
Marked response: 0.167 (kcal/mol)/heavy atom
